Molecular target: human glucagon receptor (human, UniProt P47871 26-477)
Sequence (P47871 26-477): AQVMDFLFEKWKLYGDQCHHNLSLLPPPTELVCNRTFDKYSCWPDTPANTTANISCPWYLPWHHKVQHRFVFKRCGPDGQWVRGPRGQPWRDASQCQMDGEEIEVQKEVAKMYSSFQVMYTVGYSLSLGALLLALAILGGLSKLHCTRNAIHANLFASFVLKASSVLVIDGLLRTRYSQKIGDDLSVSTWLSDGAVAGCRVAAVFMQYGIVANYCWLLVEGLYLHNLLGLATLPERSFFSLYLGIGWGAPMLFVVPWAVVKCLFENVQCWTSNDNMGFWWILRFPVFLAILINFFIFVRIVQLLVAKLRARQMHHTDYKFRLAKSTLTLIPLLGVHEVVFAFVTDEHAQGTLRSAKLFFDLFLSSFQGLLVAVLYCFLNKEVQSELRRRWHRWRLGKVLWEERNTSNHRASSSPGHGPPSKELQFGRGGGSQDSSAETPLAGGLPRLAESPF
Experiment: cell-based or functional assay
Starred links: 1 amine or outer side, 2 acyl side, 3 side chain; linkers in the order of their positions; H or OH if unused. Non-standard residues stand in square brackets, D forms with d. Groups on a side chain read outwards from the residue. Primed or numbered codes have the meaning given here. No end group written: not given here. *: point of attachment. C20 diacid = O=C(O)CCCCCCCCCCCCCCCCCCC(=O)*; C18 diacid = O=C(O)CCCCCCCCCCCCCCCCC(=O)*; γGlu = O=C(O)[C@H](CCC(=O)[*:2])N[*:1]; αMeF = C[C@](N)(Cc1ccccc1)C(=O)O; (PEG)2 = polyethylene glycol 2; PEG4′ = polyethylene glycol; AEEA = NCCOCCOCC(=O)O; Aib = CC(C)(N)C(=O)O
Measurement Kind: hGluc-R EC50 (pM), cAMP
Your answer is read as pM, so omit the unit and give the number.

What value of measured hGluc-R EC50 (pM), cAMP is listed for H[Aib]HGS[αMeF]TSDVSK[αMeF]LDSR[Aib]AK([γGlu-C18 diacid])DFVESIANT-NH2 [Peptide 254] ? 125

What value of measured hGluc-R EC50 (pM), cAMP is listed for H[Aib]HGS[αMeF]TSDVSK[αMeF]LDSRAAK([AEEA-γGlu-C18 diacid])D[αMeF]VQ[Aib]IANT-NH2 [Peptide 262] ? 11.7

What value of measured hGluc-R EC50 (pM), cAMP is listed for H[Aib]HGS[αMeF]TSDVSK[αMeF]LDSRAAK([PEG4′-γGlu-γGlu-C20 diacid])D[αMeF]VQ[Aib]IANT-NH2 [Peptide 269] ? 271

What value of measured hGluc-R EC50 (pM), cAMP is listed for H[Aib]HGS[αMeF]TSDVSK[αMeF]LDSRAAK([(PEG)2-(PEG)2-γGlu-γGlu-C18 diacid])D[αMeF]VQ[Aib]IANT-NH2 [Peptide 258] ? 93.1

What value of measured hGluc-R EC50 (pM), cAMP is listed for H[Aib]HGS[αMeF]TSDVSK[αMeF]LDSRAAK([AEEA-AEEA-γGlu-C18 diacid])D[αMeF]VQWIANT-NH2 (not fully specified; also: F22: αMePhe per table) [Peptide 288] ? 26.9

What value of measured hGluc-R EC50 (pM), cAMP is listed for H[Aib]HGS[αMeF]TSDVSK[αMeF]LDSRAAK([AEEA-AEEA-γGlu-C18 diacid])D[αMeF]VE[Aib]IANT-NH2 [Peptide 227] ? 27.2

What value of measured hGluc-R EC50 (pM), cAMP is listed for H[Aib]QGTFTSDVSK[αMeF]LDSRAAK([AEEA-AEEA-γGlu-C18 diacid])DFVQ[Aib]LVAT-NH2 (not fully specified) [Peptide 315] ? 5850

What value of measured hGluc-R EC50 (pM), cAMP is listed for H[Aib]HGS[αMeF]TSDVSK[αMeF]LDSRAAK([AEEA-AEEA-γGlu-γGlu-C20 diacid])D[αMeF]IA[Aib]IAET-NH2 [Peptide 302] ? 271

What value of measured hGluc-R EC50 (pM), cAMP is listed for H[Aib]HGS[αMeF]TSDVSK[αMeF]LDSRAAK([γGlu-γGlu-C20 diacid])D[αMeF]VQ[Aib]IANT-NH2 [Peptide 275] ? 175
